target: human GLP-1 receptor (human, UniProt P43220 24-463); experiment: cell-based or functional assay
observed property: GLP-1 activity (EC50, pM); CRE luciferase reporter
Numeric only. Scale: pM

Check out these entries, answers already filled in.
binder	unit label	test value
Compound 12 (ligand, Moiety A (HOOC-(CH2)16-CO-gGlu-2XADO) on 225K of fusion polypeptide) HGEGTFTSDVSSYLEEQAAREFIAWLVRGGGGGGGSGGGGSGGGGSGGGGSHPIPDSSPLLQFGGQVRQRYLYTDDAQQTEAHLEIREDGTVGGAADQSPESLLQLRALRPGVIQILGVRTSRFLCQRPDGALYGSLHFDPEACSFRELLLEDGYNVYQSEAHGLPLHLPGQRSPHRDPAPRGPARFLPLPGLPPALPEPPGILAPQPPDVGSSDPLSLVGGSQKRSPSYES	pM	17
Compound 21 (ligand, Moiety A (HOOC-(CH2)16-CO-gGlu-2XADO) on 51K and 225K of fusion polypeptide) HGEGTFTSDVSSYLEEQAAREFIAWLVRGGGGGGGSGGGGSGGGGSGGGGKHPIPDSSPLLQFGGQVRQRYLYTDDAQQTEAHLEIREDGTVGGAADQSPESLLQLRALRPGVIQILGVRTSRFLCQRPDGALYGSLHFDPEACSFRELLLEDGYNVYQSEAHGLPLHLPGQRSPHRDPAPRGPARFLPLPGLPPALPEPPGILAPQPPDVGSSDPLSLVGGSQKRSPSYES	pM	36.8
Compound 14 (ligand, Moiety A (HOOC-(CH2)16-CO-gGlu-2XADO) on 222K of fusion polypeptide) HGEGTFTSDVSSYLEEQAAREFIAWLVRGGGGQEPGQEPGQEPGQEPGQEPHPIPDSSPLLQFGGQVRQRYLYTDDAQQTEAHLEIREDGTVGGAADQSPESLLQLRALRPGVIQILGVRTSRFLCQRPDGALYGSLHFDPEACSFRELLLEDGYNVYQSEAHGLPLHLPGQRSPHRDPAPRGPARFLPLPGLPPALPEPPGILAPQPPDVGSSDPLSLVGKSQGRSPSYES	pM	33.2

Given the binder Compound 48 (ligand, Moiety A (HOOC-(CH2)16-CO-gGlu-2XADO) on 51K and 222K of fusion polypeptide) HGEGTFTSDVSSYLEEQAAREFIAWLVRGGGGAQPGAQPGAQPGAQPGAQKHPIPDSSPLLQFGGQVRQRYLYTDDAQQTEAHLEIREDGTVGGAADQSPESLLQLRALRPGVIQILGVRTSRFLCQRPDGALYGSLHFDPEACSFRELLLEDGYNVYQSEAHGLPLHLPGQRSPHRDPAPRGPARFLPLPGLPPALPEPPGILAPQPPDVGSSDPLSLVGKSQGRSPSYES , write its reported GLP-1 activity (EC50, pM); CRE luciferase reporter.
14.4
